The reported numbers originate from ChEMBL document CHEMBL1156952.

assay: Aqueous solubility of the compound; assay type: physicochemical; details: water (aqueous)
Listing: solubility of selected molecules
Respond with the bare value in µg/mL.

Field: example entries. Status: answers known.
* NCCCC[C@H](N)C(=O)O.O=C(O)C(Oc1nn(Cc2cccc(F)c2)c2ccccc12)C(=O)O | 134000
* NCCCC[C@H](N)C(=O)O.O=C(O)C(Oc1nn(Cc2ccc(Cl)cc2)c2ccccc12)C(=O)O | 312000
* O=C([O-])C(Oc1nn(Cc2ccccc2)c2ccccc12)C(=O)[O-].[K+].[K+] | 2200

Could you share which solubility value was measured for `Cc1ccc(Cn2nc(OC(C(=O)O)C(=O)O)c3ccccc32)cc1.N[C@@H](Cc1c[nH]cn1)C(=O)O` ?
71000

Could you share which solubility value was measured for `O=C(O)C(Oc1nn(Cc2cccc(F)c2)c2ccccc12)C(=O)O` ?
2000

Could you share which solubility value was measured for `O=C([O-])C(Oc1nn(Cc2cccc(Cl)c2)c2ccccc12)C(=O)[O-].[Na+].[Na+]` ?
1200

---

Listing: solubility of selected compounds
assay: Aqueous solubility of the compound; assay type: physicochemical; conditions: water (aqueous)
Respond with the bare value in µg/mL.

Field: example entries. Status: answers known.
- N[C@@H](Cc1c[nH]cn1)C(=O)O.O=C(O)C(Oc1nn(Cc2cccc(F)c2)c2ccccc12)C(=O)O: 56600
- O=C([O-])C(Oc1nn(Cc2cccc(F)c2)c2ccccc12)C(=O)[O-].[Na+].[Na+]: 3200

Could you share which solubility value was measured for `Cc1ccc(Cn2nc(OC(C(=O)O)C(=O)O)c3ccccc32)cc1.NCCCC[C@H](N)C(=O)O` ?
57400
